Assay: Potential characterization of nucleic acid lipid nanoparticle preparations
Format: physicochemical
Settings: Fluc-circ-RNA LNP, preparation given IV
PROPERTY MEASURED: Zeta potential (mV)

{"COMPOUND": "CCCCCCCCCCCCNC(=O)C(O)CN(CCCN(CCO)CCCN(CC(O)C(=O)NCCCCCCCCCCCC)CC(O)C(=O)NCCCCCCCCCCCC)CC(O)C(=O)NCCCCCCCCCCCC (stereo not shown)", "VALUE REPORTED": 16.27}
{"COMPOUND": "CCCCCCCCCCOC(=O)C(O)CN(CCCN(C)CCCN(CC(O)C(=O)OCCCCCCCCCC)CC(O)C(=O)OCCCCCCCCCC)CC(O)C(=O)OCCCCCCCCCC (stereo not shown)", "VALUE REPORTED": 9.98}
{"COMPOUND": "CCCCCCCCCCCCOC(=O)C(O)CN(CCN(C)CCN(CC(O)C(=O)OCCCCCCCCCCCC)CC(O)C(=O)OCCCCCCCCCCCC)CC(O)C(=O)OCCCCCCCCCCCC (stereo not shown)", "VALUE REPORTED": 15.53}
{"COMPOUND": "[2H]C([2H])([2H])[N+](CCCN(CC(O)C(=O)NCCCCCCCCCCCC)CC(O)C(=O)NCCCCCCCCCCCC)(CCCN(CC(O)C(=O)NCCCCCCCCCCCC)CC(O)C(=O)NCCCCCCCCCCCC)C([2H])([2H])[2H] (stereo not shown)", "VALUE REPORTED": 14.23}

====

Test: Particle size and PDI of nucleic acid lipid nanoparticle preparations by dynamic light scattering
Type: physicochemical
Details: DMG-PEG2000:DSPC:Chol:compound 1.40:11.15:38.95:48.50, N/P 20
PROPERTY MEASURED: Particle size (nm)

Example results:
{"COMPOUND": "CCCCCCCCCCCCOC(=O)C(O)CN(CCOCCOCCN(CC(O)C(=O)OCCCCCCCCCCCC)CC(O)C(=O)OCCCCCCCCCCCC)CC(O)C(=O)OCCCCCCCCCCCC (centres unmarked)", "PROPERTY MEASURED": "Particle size (nm)", "UOM": "nm", "VALUE REPORTED": 180.63}
{"COMPOUND": "CCCCCCCCCCCCNC(=O)C(O)CN(CCCCCCCN(CC(O)C(=O)NCCCCCCCCCCCC)CC(O)C(=O)NCCCCCCCCCCCC)CC(O)C(=O)NCCCCCCCCCCCC (centres unmarked)", "PROPERTY MEASURED": "Particle size (nm)", "UOM": "nm", "VALUE REPORTED": 132.67}
{"COMPOUND": "CCCCCCCCCCNC(=O)C(O)CN(CCOCCN(CC(O)C(=O)NCCCCCCCCCC)CC(O)C(=O)NCCCCCCCCCC)CC(O)C(=O)NCCCCCCCCCC (centres unmarked)", "PROPERTY MEASURED": "Particle size (nm)", "UOM": "nm", "VALUE REPORTED": 103.37}

I. CCCCCCCCCCCCNC(=O)C(O)CN(CCOCCOCCN(CC(O)C(=O)NCCCCCCCCCCCC)CC(O)C(=O)NCCCCCCCCCCCC)CC(O)C(=O)NCCCCCCCCCCCC (centres unmarked)
II. CCCCCCCCCCCCOC(=O)C(O)CN(CCCCCCCN(CC(O)C(=O)OCCCCCCCCCCCC)CC(O)C(=O)OCCCCCCCCCCCC)CC(O)C(=O)OCCCCCCCCCCCC (centres unmarked)
Compare reported Particle size (nm) values for I and II . Which is lower? Let me know the label of the one you choose.
I

====

Test system: mice
Experiment: In vivo delivery of FLuc-mRNA lipid nanoparticles in mice, in vivo imaging (IVIS)
Conditions: IV, organ not given; DMG-PEG2000:DSPC:Chol:compound 1.40:11.15:38.95:48.50, N/P 20; Fluc-mRNA
PROPERTY MEASURED: IVIS
Answer using only a numeral; do not append any unit.

{"MOLECULE": "CCCCCCCCCCNC(=O)C(O)CN(CCCCCN(CC(O)C(=O)NCCCCCCCCCC)CC(O)C(=O)NCCCCCCCCCC)CC(O)C(=O)NCCCCCCCCCC (stereo not drawn)", "SYSTEM": "mice", "IVIS": "6.60E+05"}
{"MOLECULE": "CCCCCCCCCCOC(=O)C(O)CN(CCOCCOCCN(CC(O)C(=O)OCCCCCCCCCC)CC(O)C(=O)OCCCCCCCCCC)CC(O)C(=O)OCCCCCCCCCC (stereo not drawn)", "SYSTEM": "mice", "IVIS": "7.27E+05"}
{"MOLECULE": "CCCCCCCCCCNC(=O)C(O)CN(CCOCCOCCN(CC(O)C(=O)NCCCCCCCCCC)CC(O)C(=O)NCCCCCCCCCC)CC(O)C(=O)NCCCCCCCCCC (stereo not drawn)", "SYSTEM": "mice", "IVIS": "1.95E+07"}
{"MOLECULE": "CCCCCCCC/C=C\\CCCCCCCCNC(=O)C(O)CN(C)CCN(C)CCN(C)CC(O)C(=O)NCCCCCCCC/C=C\\CCCCCCCC (stereo not drawn)", "SYSTEM": "mice", "IVIS": "2.97E+05"}
{"MOLECULE": "CCCCCCCCCCCCNC(=O)C(O)CN(CCCCCN(CC(O)C(=O)NCCCCCCCCCCCC)CC(O)C(=O)NCCCCCCCCCCCC)CC(O)C(=O)NCCCCCCCCCCCC (stereo not drawn)", "SYSTEM": "mice", "IVIS": "4.29E+05"}

Consider the additional molecule presented here.
// IVIS lookup, key: CCCCCCCCCCOC(=O)C(O)CN(CCCCCCCN(CC(O)C(=O)OCCCCCCCCCC)CC(O)C(=O)OCCCCCCCCCC)CC(O)C(=O)OCCCCCCCCCC (stereo not drawn)
2.11E+05

====

Test system: mice
Assay: In vivo delivery of FLuc-mRNA lipid nanoparticles in mice, in vivo imaging (IVIS)
Conditions: Fluc-mRNA LNP; route IV; organ: liver; formulation, molar ratio and N/P as in the table
PROPERTY MEASURED: % of organ targeting (%)
Lab book: enter the figure in %, no units written.

{"MOLECULE": "CCCCCCCCN(C)C(=O)C(O)CN(CCCN(C)CCCN(CC(O)C(=O)N(C)CCCCCCCC)CC(O)C(=O)N(C)CCCCCCCC)CC(O)C(=O)N(C)CCCCCCCC (centres unmarked) [Compound L0350]", "% of organ targeting, %": 0.95}
{"MOLECULE": "CCCCCCC(CCCCCC)C(=O)NCCNC(=O)C(O)CN(CCN(C)CCN(CC(O)C(=O)NCCNC(=O)C(CCCCCC)CCCCCC)CC(O)C(=O)NCCNC(=O)C(CCCCCC)CCCCCC)CC(O)C(=O)NCCNC(=O)C(CCCCCC)CCCCCC (centres unmarked) [Compound L0380]", "% of organ targeting, %": 96.36}
{"MOLECULE": "CCCCCCCC(CCCCCCC)OC(=O)CCCNC(=O)C(O)CN(CCN(C)CCN(CC(O)C(=O)NCCCC(=O)OC(CCCCCCC)CCCCCCC)CC(O)C(=O)NCCCC(=O)OC(CCCCCCC)CCCCCCC)CC(O)C(=O)NCCCC(=O)OC(CCCCCCC)CCCCCCC (centres unmarked) [Compound L0383]", "% of organ targeting, %": 68.14}
{"MOLECULE": "CCCCCCCCCCOC(=O)CCCNC(=O)C(O)CN(CCCN(C)CCCN(CC(O)C(=O)NCCCC(=O)OCCCCCCCCCC)CC(O)C(=O)NCCCC(=O)OCCCCCCCCCC)CC(O)C(=O)NCCCC(=O)OCCCCCCCCCC (centres unmarked) [Compound L0385]", "% of organ targeting, %": 0.90}
{"MOLECULE": "CCCCCCCCC(CCCCCC)C(=O)OCCCCCCNC(=O)C(O)CN(CCCN(C)CCCN(CC(O)C(=O)NCCCCCCOC(=O)C(CCCCCC)CCCCCCCC)CC(O)C(=O)NCCCCCCOC(=O)C(CCCCCC)CCCCCCCC)CC(O)C(=O)NCCCCCCOC(=O)C(CCCCCC)CCCCCCCC (centres unmarked) [Compound L0370]", "% of organ targeting, %": 4.65}
{"MOLECULE": "CCCCCCCCCCCCCCN(C)C(=O)C(O)CN(CCN(C)CCN(CC(O)C(=O)N(C)CCCCCCCCCCCCCC)CC(O)C(=O)N(C)CCCCCCCCCCCCCC)CC(O)C(=O)N(C)CCCCCCCCCCCCCC (centres unmarked) [Compound L0356]", "% of organ targeting, %": 7.17}
{"MOLECULE": "CCCCCCCCCCOC(=O)CCCNC(=O)C(O)CN(CCN(C)CCN(CC(O)C(=O)NCCCC(=O)OCCCCCCCCCC)CC(O)C(=O)NCCCC(=O)OCCCCCCCCCC)CC(O)C(=O)NCCCC(=O)OCCCCCCCCCC (centres unmarked) [Compound L0386]", "% of organ targeting, %": 1.32}
{"MOLECULE": "CCCCCCCCC(CCCCCC)C(=O)OCCCCNC(=O)C(O)CCN(CCCN(C)CCN(CC(O)C(=O)NCCCCOC(=O)C(CCCCCC)CCCCCCCC)CC(O)C(=O)NCCCCOC(=O)C(CCCCCC)CCCCCCCC)C(O)C(=O)NCCCCOC(=O)C(CCCCCC)CCCCCCCC (centres unmarked) [Compound L0377]", "% of organ targeting, %": 38.23}
{"MOLECULE": "CCCCCCC(CCCCCC)C(=O)OCCCCNC(=O)C(O)CN(CCCN(CC(O)C(=O)NCCCCOC(=O)C(CCCCCC)CCCCCC)CC(O)C(=O)NCCCCOC(=O)C(CCCCCC)CCCCCC)CCCN(CC(O)C(=O)NCCCCOC(=O)C(CCCCCC)CCCCCC)CC(O)C(=O)NCCCCOC(=O)C(CCCCCC)CCCCCC (centres unmarked) [Compound L0369]", "% of organ targeting, %": 98.57}
{"MOLECULE": "CCCCCCCC(CCCCCCC)OC(=O)CCCNC(=O)C(O)CN(CCCN(C)CCCN(CC(O)C(=O)NCCCC(=O)OC(CCCCCCC)CCCCCCC)CC(O)C(=O)NCCCC(=O)OC(CCCCCCC)CCCCCCC)CC(O)C(=O)NCCCC(=O)OC(CCCCCCC)CCCCCCC (centres unmarked) [Compound L0382]", "% of organ targeting, %": 67.69}

// % of organ targeting lookup, key: CCCCCCCCC(CCCCCC)C(=O)OCCCCNC(=O)C(O)CN(CCCN(CC(O)C(=O)NCCCCOC(=O)C(CCCCCC)CCCCCCCC)CC(O)C(=O)NCCCCOC(=O)C(CCCCCC)CCCCCCCC)CCCN(CC(O)C(=O)NCCCCOC(=O)C(CCCCCC)CCCCCCCC)CC(O)C(=O)NCCCCOC(=O)C(CCCCCC)CCCCCCCC (centres unmarked) [Compound L0378]
45.43

// same read-out, input: CCCCCCC(CCCCCC)C(=O)OCCCCNC(=O)C(O)CN(CCN(C)CCN(CC(O)C(=O)NCCCCOC(=O)C(CCCCCC)CCCCCC)CC(O)C(=O)NCCCCOC(=O)C(CCCCCC)CCCCCC)CC(O)C(=O)NCCCCOC(=O)C(CCCCCC)CCCCCC (centres unmarked) [Compound L0368]
18.05

// same read-out, input: CCCCCCCCCCN(C)C(=O)C(O)CN(CCCN(CC(O)C(=O)N(C)CCCCCCCCCC)CC(O)C(=O)N(C)CCCCCCCCCC)CCCN(CC(O)C(=O)N(C)CCCCCCCCCC)CC(O)C(=O)N(C)CCCCCCCCCC (centres unmarked) [Compound L0353]
31.60

// same read-out, input: CCCCCCCCCCCCCCN(C)C(=O)C(O)CN(CCCN(C)CCCN(CC(O)C(=O)N(C)CCCCCCCCCCCCCC)CC(O)C(=O)N(C)CCCCCCCCCCCCCC)CC(O)C(=O)N(C)CCCCCCCCCCCCCC (centres unmarked) [Compound L0355]
1.66

// same read-out, input: CCCCCCC(CCCCCC)C(=O)NCCNC(=O)C(O)CN(CCCN(CC(O)C(=O)NCCNC(=O)C(CCCCCC)CCCCCC)CC(O)C(=O)NCCNC(=O)C(CCCCCC)CCCCCC)CCCN(CC(O)C(=O)NCCNC(=O)C(CCCCCC)CCCCCC)CC(O)C(=O)NCCNC(=O)C(CCCCCC)CCCCCC (centres unmarked) [Compound L0381]
86.51

// same read-out, input: CCCCCCC(CCCCC)C(=O)OCCCCNC(=O)C(O)CN(CCCN(C)CCCCN(CCC(O)C(=O)NCCOC(=O)C(CCCCCC)CCCCCC)C(O)C(=O)NCCCCOC(=O)C(CCCCCC)CCCCCC)CC(O)C(=O)NCCCCOC(=O)C(CCCCC)CCCCCC (centres unmarked) [Compound L0367]
3.91

// same read-out, input: CCCCCCCCC(CCCCCC)C(=O)OCCCCCCNC(=O)C(O)CN(CCN(C)CCN(CC(O)C(=O)NCCCCCCOC(=O)C(CCCCCC)CCCCCCCC)CC(O)C(=O)NCCCCCCOC(=O)C(CCCCCC)CCCCCCCC)CC(O)C(=O)NCCCCCCOC(=O)C(CCCCCC)CCCCCCCC (centres unmarked) [Compound L0371]
8.16
